These data points were gathered from ChEMBL document CHEMBL5136966.

method description: Antiplatelet activity against ADP-induced human platelet in platelet rich plasma assessed as inhibition of platelet aggregation at 10 uM preincubated for 2 mins followed by ADP stimulation and measured for 5 mins by aggregometry relative to control
Assay type: functional
reported conditions: 7 min
Exercise: state measured inhibition at 10 µM for each of the molecules provided.

List reported inhibition at 10 µM for each of these molecules:
1. CCCSc1nc(NCC(C)C)c2nnn([C@@H]3C[C@H](OCCO)[C@@H](O)[C@H]3O)c2n1
2. CCCSc1nc(N/N=C/c2ccc([N+](=O)[O-])cc2)c2nnn([C@@H]3C[C@H](OCCO)[C@@H](O)[C@H]3O)c2n1
3. CCCSc1nc(NC2CCCCC2)c2nnn([C@@H]3C[C@H](OCCO)[C@@H](O)[C@H]3O)c2n1
4. CCCSc1nc(N/N=C/c2ccc(Cl)cc2)c2nnn([C@@H]3C[C@H](O)[C@@H](O)[C@H]3O)c2n1
5. CCCSc1nc(N/N=C/c2ccc(O)cc2O)c2nnn([C@@H]3C[C@H](O)[C@@H](O)[C@H]3O)c2n1
6. CCCSc1nc(N[C@@H]2C[C@H]2c2ccc(F)c(F)c2)c2nnn([C@@H]3C[C@H](OCCO)[C@@H](O)[C@H]3O)c2n1 [TICAGRELOR]
7. CCCSc1nc(NCCO)c2nnn([C@@H]3C[C@H](OCCO)[C@@H](O)[C@H]3O)c2n1
8. CCCSc1nc(N/N=C/c2cccc([N+](=O)[O-])c2)c2nnn([C@@H]3C[C@H](O)[C@@H](O)[C@H]3O)c2n1

Result block:
1: 7.8%; 2: 90.9%; 3: 5.3%; 4: 53.7%; 5: 98.3%; 6: 92.7%; 7: 15.2%; 8: 88.6%

* * *

method description: Antiplatelet activity against ADP-induced human platelet in platelet rich plasma assessed as inhibition of platelet aggregation at 10 uM preincubated for 2 mins followed by ADP stimulation and measured for 5 mins by aggregometry relative to control
Format: functional
reported conditions: 7 min
For each of the molecules below, state its inhibition at 10 µM.
One number for each entry, in %.

CCCSc1nc(N/N=C/c2ccc(O)cc2)c2nnn([C@@H]3C[C@H](O)[C@@H](O)[C@H]3O)c2n1	100
CCCNc1nc(SCCC)nc2c1nnn2[C@@H]1C[C@H](O)[C@@H](O)[C@H]1O	68.6
CCCSc1nc(N/N=C/c2ccccn2)c2nnn([C@@H]3C[C@H](O)[C@@H](O)[C@H]3O)c2n1	71.7
CCCSc1nc(N/N=C/c2ccccc2O)c2nnn([C@@H]3C[C@H](O)[C@@H](O)[C@H]3O)c2n1	92.1

For each of the items listed, what is its inhibition at 10 µM?
1. CCCSc1nc(NCC)c2nnn([C@@H]3C[C@H](OCCO)[C@@H](O)[C@H]3O)c2n1
2. CCCSc1nc(N/N=C/c2ccc(Cl)cc2Cl)c2nnn([C@@H]3C[C@H](O)[C@@H](O)[C@H]3O)c2n1

Result block:
1: 21.4; 2: 50.1

# return inhibition at 10 µM for each item in the list
1. CCCSc1nc(NC2CC2)c2nnn([C@@H]3C[C@H](O)[C@@H](O)[C@H]3O)c2n1
2. CCCSc1nc(N/N=C/c2cccc(O)c2)c2nnn([C@@H]3C[C@H](OCCO)[C@@H](O)[C@H]3O)c2n1

Result block:
86.3
100
